# Assayed target: AgFus1
# Experimental details: SPOT peptide array binding signal intensity (averaged, normalized) (arbitrary units (background-subtracted, floor 0; scale differs between SH3 domains)); higher = stronger binding of the SH3 domain to the peptide
Recorded metric: SPOT peptide array binding signal intensity
Reply: number alone, nothing else.

ILARAILTIPRVLDK    1100

Continue with the binder presented below.
Given RVTRKRPREPKSTND , state its recorded SPOT peptide array binding signal intensity.
300
